System: LoVo (Colorectal Carcinoma)
method_description: Bliss excess, mean over the matrix (fraction); higher = more synergy
endpoint: Bliss excess
Just the number, please, no unit after it.

Query block: Data request, read-out Bliss excess, for COc1nnc2ccc(N3CCC(c4ccc(OCCN5CCN(C)C(=O)[C@H]5C)cc4)CC3)nn12 [AZD5153] + CCN(CCO)CCCOc1ccc2c(Nc3cc(CC(=O)Nc4cccc(F)c4)[nH]n3)ncnc2c1 [AZD2811] (first compound max 1 µM, 7x7, partner max 1 µM)
Result block: -0.0623

Query block: Return reported Bliss excess; argument: CC(=O)c1c(C)c2cnc(Nc3ccc(N4CCNCC4)cn3)nc2n(C2CCCC2)c1=O [Palbociclib] + CC1(C)CCC(CN2CCN(c3ccc(C(=O)NS(=O)(=O)c4ccc(NCC5CCOCC5)c([N+](=O)[O-])c4)c(Oc4cnc5[nH]ccc5c4)c3)CC2)=C(c2ccc(Cl)cc2)C1 [Venetoclax] (first compound max 10 µM, 7x7, partner max 1 µM)
Result block: -0.0178

Query block: What value of Bliss excess has been reported for the following compound? COc1cccc(OCCCN)c1-c1cc(Nc2cnc(C#N)cn2)n[nH]1 [Prexasertib] + O=C(c1cc(Cc2n[nH]c(=O)c3ccccc23)ccc1F)N1CCN(C(=O)C2CC2)CC1 [Olaparib] (first compound max 1 µM, 7x7, partner max 10 µM)
Result block: -0.129

Query block: What does the record list as Bliss excess for Cc1cc2ncnn2cc1Nc1ncc2c(n1)n(C1CCOCC1)c(=O)n2C [AZD7648] + CCN(CCO)CCCOc1ccc2c(Nc3cc(CC(=O)Nc4cccc(F)c4)[nH]n3)ncnc2c1 [AZD2811] (first compound max 10 µM, 7x7, partner max 1 µM) ?
Result block: -0.0126

---

combination Emax overview
Tested on: NCI-H747 (Colorectal Carcinoma)
method_description: combination Emax (second highest fraction inhibited in the dose matrix, 72 h); higher = more inhibition; extreme values may be limits of the assay
Enter a number only.

1) C=CCn1c(=O)c2cnc(Nc3ccc(N4CCN(C)CC4)cc3)nc2n1-c1cccc(C(C)(C)O)n1 [AZD1775] + O=C(c1cc(Cc2n[nH]c(=O)c3ccccc23)ccc1F)N1CCN(C(=O)C2CC2)CC1 [Olaparib] (first compound max 1 µM, partner max 10 µM) | 0.501

Here is another compound to look at.
Query block: Would you kindly share the measured combination Emax for CC1(C)CCC(CN2CCN(c3ccc(C(=O)NS(=O)(=O)c4ccc(NCC5CCOCC5)c([N+](=O)[O-])c4)c(Oc4cnc5[nH]ccc5c4)c3)CC2)=C(c2ccc(Cl)cc2)C1 [Venetoclax] + Cn1cnc2c(F)c(Nc3ccc(Br)cc3Cl)c(C(=O)NOCCO)cc21 [Selumetinib] (first compound max 1 µM, 7x7, partner max 3 µM) ?
Result block: 0.717

---

System: NB14 (Neuroblastoma)
method_description: Bliss excess, mean over the matrix (fraction); higher = more synergy
Recorded Bliss excess for the following compounds
Output spec: single numeric token, no unit.

Example cases with answers are listed next.
1) CN(CCO)CC[C@H](CSc1ccccc1)Nc1ccc(S(=O)(=O)NC(=O)c2ccc(N3CCC([C@@H](O)c4ccccc4-c4ccc(Cl)cc4)CC3)cc2)cc1S(=O)(=O)C(F)(F)F [AZD4320] + Cn1cnc2c(F)c(Nc3ccc(Br)cc3Cl)c(C(=O)NOCCO)cc21 [Selumetinib] (first compound max 1 µM, 7x7, partner max 3 µM) | 0.0033
2) C=CCn1c(=O)c2cnc(Nc3ccc(N4CCN(C)CC4)cc3)nc2n1-c1cccc(C(C)(C)O)n1 [AZD1775] + O=C(c1cc(Cc2n[nH]c(=O)c3ccccc23)ccc1F)N1CCN(C(=O)C2CC2)CC1 [Olaparib] (first compound max 1 µM, partner max 10 µM) | -0.0306

Query block: Form field: reported Bliss excess of CC1(C)CCC(CN2CCN(c3ccc(C(=O)NS(=O)(=O)c4ccc(NCC5CCOCC5)c([N+](=O)[O-])c4)c(Oc4cnc5[nH]ccc5c4)c3)CC2)=C(c2ccc(Cl)cc2)C1 [Venetoclax] + Cc1cc2ncnn2cc1Nc1ncc2c(n1)n(C1CCOCC1)c(=O)n2C [AZD7648] (first compound max 1 µM, 7x7, partner max 10 µM)
Result block: -0.0033

---

Property: Bliss excess; scope: individual compounds
Tested on: OC-314 (Ovarian Carcinoma)
method_description: Bliss excess, mean over the matrix (fraction); higher = more synergy
Could you respond with only the numeric value?

Query block: # lookup: Bliss excess of Cc1c2c(nn1C)CSCc1cc(n(C)n1)CSc1cc(c3ccccc3c1)OCCCc1c(C(=O)O)n(C)c3c-2c(Cl)ccc13 [AZD5991] + Nc1ccn([C@@H]2O[C@H](CO)[C@@H](O)C2(F)F)c(=O)n1 [Gemcitabine] (first compound max 1 µM, 7x7, partner max 0.3 µM)
Result block: -0.0084

Query block: Bench note: what Bliss excess did CC(=O)Nc1cccc(-n2c(=O)n(C3CC3)c(=O)c3c(Nc4ccc(I)cc4F)n(C)c(=O)c(C)c32)c1 [Trametinib] + Cc1nc(-c2cn3c(n2)-c2ccc(-c4cnn(C(C)(C)C(N)=O)c4)cc2OCC3)n(C(C)C)n1 [Taselisib] (first compound max 1 µM, 7x7, partner max 10 µM) show?
Result block: 0.066

Query block: State the recorded Bliss excess for this entry: O=C(c1cc(Cc2n[nH]c(=O)c3ccccc23)ccc1F)N1CCN(C(=O)C2CC2)CC1 [Olaparib] + COc1nnc2ccc(N3CCC(c4ccc(OCCN5CCN(C)C(=O)[C@H]5C)cc4)CC3)nn12 [AZD5153] (first compound max 10 µM, 7x7, partner max 1 µM)
Result block: -0.0341

Query block: Please look up its Bliss excess: C=CCn1c(=O)c2cnc(Nc3ccc(N4CCN(C)CC4)cc3)nc2n1-c1cccc(C(C)(C)O)n1 [AZD1775] + Nc1ccn([C@@H]2O[C@H](CO)[C@@H](O)C2(F)F)c(=O)n1 [Gemcitabine] (first compound max 1 µM, partner max 0.3 µM)
Result block: 0.0576

---

Listed compounds paired with reported combination Emax
System: MHH-PREB-1 (B-Cell Non-Hodgkin's Lymphoma)
method_description: combination Emax (second highest fraction inhibited in the dose matrix, 72 h); higher = more inhibition; extreme values may be limits of the assay
// keep it numeric: no unit symbol after the value

Previously resolved entries follow.
1. CC1(C)CCC(CN2CCN(c3ccc(C(=O)NS(=O)(=O)c4ccc(NCC5CCOCC5)c([N+](=O)[O-])c4)c(Oc4cnc5[nH]ccc5c4)c3)CC2)=C(c2ccc(Cl)cc2)C1 [Venetoclax] + Cn1cnc2c(F)c(Nc3ccc(Br)cc3Cl)c(C(=O)NOCCO)cc21 [Selumetinib] (first compound max 1 µM, 7x7, partner max 3 µM) | 0.147
2. CC1(C)CCC(CN2CCN(c3ccc(C(=O)NS(=O)(=O)c4ccc(NCC5CCOCC5)c([N+](=O)[O-])c4)c(Oc4cnc5[nH]ccc5c4)c3)CC2)=C(c2ccc(Cl)cc2)C1 [Venetoclax] + C[C@@H](Nc1cc(F)cc(F)c1)c1cc(C(=O)N(C)C)cc2c(=O)cc(N3CCOCC3)oc12 [AZD8186] (first compound max 1 µM, 7x7, partner max 3 µM) | 0.21
3. CC1(C)CCC(CN2CCN(c3ccc(C(=O)NS(=O)(=O)c4ccc(NCC5CCOCC5)c([N+](=O)[O-])c4)c(Oc4cnc5[nH]ccc5c4)c3)CC2)=C(c2ccc(Cl)cc2)C1 [Venetoclax] + CCN(CCO)CCCOc1ccc2c(Nc3cc(CC(=O)Nc4cccc(F)c4)[nH]n3)ncnc2c1 [AZD2811] (first compound max 1 µM, 7x7, partner max 1 µM) | 0.187
4. Cc1cc2ncnn2cc1Nc1ncc2c(n1)n(C1CCOCC1)c(=O)n2C [AZD7648] + CN(C)CCCOc1ccc(-c2ccc3ncc4c(c3c2)n(C2CCOCC2)c(=O)n4C)cn1 [AZD0156] (first compound max 10 µM, 7x7, partner max 1 µM) | 0.511
5. NC1(C(=O)N[C@@H](CCO)c2ccc(Cl)cc2)CCN(c2ncnc3[nH]ccc23)CC1 [Capivasertib] + Cn1cnc2c(F)c(Nc3ccc(Br)cc3Cl)c(C(=O)NOCCO)cc21 [Selumetinib] (first compound max 10 µM, 7x7, partner max 10 µM) | 0.205
6. Cc1cc2ncnn2cc1Nc1ncc2c(n1)n(C1CCOCC1)c(=O)n2C [AZD7648] + C=CCn1c(=O)c2cnc(Nc3ccc(N4CCN(C)CC4)cc3)nc2n1-c1cccc(C(C)(C)O)n1 [AZD1775] (first compound max 10 µM, partner max 1 µM) | 0.823
7. COc1nnc2ccc(N3CCC(c4ccc(OCCN5CCN(C)C(=O)[C@H]5C)cc4)CC3)nn12 [AZD5153] + Cc1c2c(nn1C)CSCc1cc(n(C)n1)CSc1cc(c3ccccc3c1)OCCCc1c(C(=O)O)n(C)c3c-2c(Cl)ccc13 [AZD5991] (first compound max 1 µM, 7x7, partner max 1 µM) | 0.461
8. COc1nnc2ccc(N3CCC(c4ccc(OCCN5CCN(C)C(=O)[C@H]5C)cc4)CC3)nn12 [AZD5153] + Cn1cnc2c(F)c(Nc3ccc(Br)cc3Cl)c(C(=O)NOCCO)cc21 [Selumetinib] (first compound max 1 µM, 7x7, partner max 10 µM) | 0.459

Query block: Entry CN(CCO)CC[C@H](CSc1ccccc1)Nc1ccc(S(=O)(=O)NC(=O)c2ccc(N3CCC([C@@H](O)c4ccccc4-c4ccc(Cl)cc4)CC3)cc2)cc1S(=O)(=O)C(F)(F)F [AZD4320] + C[C@@H](Nc1cc(F)cc(F)c1)c1cc(C(=O)N(C)C)cc2c(=O)cc(N3CCOCC3)oc12 [AZD8186] (first compound max 1 µM, 7x7, partner max 3 µM) has what combination Emax?
Result block: 0.277

Query block: Query (compound): C[C@@H](c1ccc2nccn2c1)n1nnc2ncc(-c3cnn(C)c3)nc21 [Savolitinib] + CN(CC[C@H](CSC1=CC=CC=C1)NC2=C(C=C(C=C2)S(=O)(=O)NC(=O)C3=CC=C(C=C3)N4CCC(CC4)[C@H](C5=CC=CC=C5C6=CC=C(C=C6)Cl)O)S(=O)(=O)C(F)(F)F)CCO [AZD4320] (first compound max 1 µM, 7x7, partner max 1 µM) ; field requested: combination Emax
Result block: 0.139

Query block: Entry under review: CCN(CCO)CCCOc1ccc2c(Nc3cc(CC(=O)Nc4cccc(F)c4)[nH]n3)ncnc2c1 [AZD2811] + C=CCn1c(=O)c2cnc(Nc3ccc(N4CCN(C)CC4)cc3)nc2n1-c1cccc(C(C)(C)O)n1 [AZD1775] (first compound max 1 µM, partner max 1 µM) . Reported combination Emax?
Result block: 0.718

Query block: What value of measured combination Emax is listed for CC(=O)Nc1cccc(-n2c(=O)n(C3CC3)c(=O)c3c(Nc4ccc(I)cc4F)n(C)c(=O)c(C)c32)c1 [Trametinib] + Cc1nc(-c2cn3c(n2)-c2ccc(-c4cnn(C(C)(C)C(N)=O)c4)cc2OCC3)n(C(C)C)n1 [Taselisib] (first compound max 1 µM, 7x7, partner max 10 µM) ?
Result block: 0.271

Query block: Look up combination Emax: NC1(C(=O)N[C@@H](CCO)c2ccc(Cl)cc2)CCN(c2ncnc3[nH]ccc23)CC1 [Capivasertib] + CC(C)n1c(=O)n(C)c2cnc3cc(F)c(-c4ccc(OCCCN5CCCCC5)nc4)cc3c21 [AZD1390] (first compound max 10 µM, 7x7, partner max 0.3 µM)
Result block: 0.21

Ref: the supplement of paper PMC11061612
